# study target: mutant KRAS (G12D) (Homo sapiens, UniProt P01116, G12D)
# run description: Surface plasmon resonance (SPR) binding to mutant KRAS (G12D)
# details: SPR Biacore 8K+, Single Cycle Kinetics, 30° C., 10 μM GDP, 1:1 binding model; read-out: Dissociation Constant KD (nM) for Mutant KRAS (G12D)
Starred links: 1 amine or outer side, 2 acyl side, 3 side chain; linkers in the order of their positions; H or OH if unused. Positions of bridges follow the written chain, without caps; N, C: chain ends. Non-standard residues stand in square brackets, D forms with d. Residues, ends and D or L forms follow the SMILES beside them. *: point of attachment. hPhe(3-Cl-4-CF3) = N[C@@H](CCc1ccc(C(F)(F)F)c(Cl)c1)C(=O)O; NMePhe(4-Me) = CN[C@@H](Cc1ccc(C)cc1)C(=O)O; Phe(3-I) = N[C@@H](Cc1cccc(I)c1)C(=O)O; NMeCha = CN[C@@H](CC1CCCCC1)C(=O)O; X6 = O=C(CN(CCN1CCNCC1)[*:1])[*:2]; NMeChg = CN[C@H](C(=O)O)C1CCCCC1; NMeD = CN[C@@H](CC(=O)O)C(=O)O; NMeL = CN[C@@H](CC(C)C)C(=O)O; NMehSer = CN[C@@H](CCO)C(=O)O; NMeS = CN[C@@H](CO)C(=O)O; Nle = CCCC[C@H](N)C(=O)O; Piperidide = C1CCN(*)CC1; Ac5c = NC1(C(=O)O)CCCC1; Sar = CNCC(=O)O
Would you mind telling me the reported Kd of each entry?
Field note: include the unit after the figure.

[Q] Could you share which Kd value was measured for CC[C@H](C)[C@@H]1NC(=O)[C@H](CC(C)C)N(C)C(=O)C[C@@H](C(=O)N2CCCCC2)N(C)C(=O)[C@H](C2CCCCC2)N(C)C(=O)C2(CCCC2)NC(=O)CN(CCN2CCNCC2)C(=O)[C@H](CCc2ccc(C(F)(F)F)c(Cl)c2)NC(=O)CN(C)C(=O)[C@H](CC2CCCCC2)N(C)C(=O)CN(C)C(=O)CN(C)C1=O [Compound 7, reference compound] ([NMeL]I[Sar][Sar][NMeCha][Sar][hPhe(3-Cl-4-CF3)][X6][Ac5c][NMeChg][NMeD]-Piperidide; lactam N-11) ?
[A] 0.18 nM

[Q] Ok, now CCCC[C@@H]1NC(=O)[C@H](Cc2cccc(I)c2)NC(=O)CN(C)C(=O)[C@H](Cc2ccc(C)cc2)N(C)C(=O)CN(C)C(=O)CN(C)C(=O)[C@H]([C@@H](C)CC)NC(=O)[C@H](CCOC)N(C)C(=O)C[C@@H](C(=O)N2CCCCC2)N(C)C(=O)[C@H](CC(C)C)NC(=O)[C@H](COC)N(C)C1=O [Compound 3] ([NMehSer](Me)I[Sar][Sar][NMePhe(4-Me)][Sar][Phe(3-I)][Nle][NMeS](Me)L[NMeD]-Piperidide; lactam N-11)
[A] 2.9 nM

----------
# study target: mutant KRAS (G12D) (Homo sapiens, UniProt P01116, G12D)
# run description: Surface plasmon resonance (SPR) binding to mutant KRAS (G12D)
# details: SPR Biacore 8K+, Single Cycle Kinetics, 30° C., 10 μM GDP, 1:1 binding model; read-out: Dissociation Constant KD (nM) for Mutant KRAS (G12D)
Starred links: 1 amine or outer side, 2 acyl side, 3 side chain; linkers in the order of their positions; H or OH if unused. Positions of bridges follow the written chain, without caps; N, C: chain ends. Non-standard residues stand in square brackets, D forms with d. Residues, ends and D or L forms follow the SMILES beside them. *: point of attachment. hPhe(3-Cl-4-CF3) = N[C@@H](CCc1ccc(C(F)(F)F)c(Cl)c1)C(=O)O; X1 = CN([C@@H](CC1CCC(F)(F)CC1)C(=O)[*:2])[*:1]; X4 = C#Cc1cccc(C[C@H](N[*:1])C(=O)[*:2])c1; X5 = O=C([C@H](Cc1cccc(F)c1F)N[*:1])[*:2]; Phe(3-I) = N[C@@H](Cc1cccc(I)c1)C(=O)O; X2 = CC(C)=CC[C@H](N[*:1])C(=O)[*:2]; NMeY = CN[C@@H](Cc1ccc(O)cc1)C(=O)O; NMeCha = CN[C@@H](CC1CCCCC1)C(=O)O; X3 = C[C@H](CN(C)[*:1])C(=O)[*:2]; NMeF = CN[C@@H](Cc1ccccc1)C(=O)O; Gly(cBu) = N[C@H](C(=O)O)C1CCC1; NMeD = CN[C@@H](CC(=O)O)C(=O)O; NMeL = CN[C@@H](CC(C)C)C(=O)O; NMeV = CN[C@H](C(=O)O)C(C)C; d(β3hA) = C[C@@H](N)CC(=O)O; Pip = O=C(O)[C@@H]1CCCCN1; NMeA = CN[C@@H](C)C(=O)O; NMeAib = CNC(C)(C)C(=O)O; Nle = CCCC[C@H](N)C(=O)O; Piperidide = C1CCN(*)CC1; Ac5c = NC1(C(=O)O)CCCC1; Aze = O=C(O)[C@@H]1CCN1; Sar = CNCC(=O)O
Would you mind telling me the reported Kd of each entry?
A number alone suffices; assume nM.

[Q] What does the record list as Kd for CC[C@H](C)[C@@H]1NC(=O)[C@H](CC(C)C)N(C)C(=O)C[C@@H](C)NC(=O)[C@H](C(C)C)N(C)C(=O)C2(CCCC2)NC(=O)[C@@H]2CCCN2C(=O)[C@H](CCc2ccc(C(F)(F)F)c(Cl)c2)NC(=O)CN(C)C(=O)[C@H](CC2CCCCC2)N(C)C(=O)[C@@H]2CCN2C(=O)[C@H](C)N(C)C1=O [Compound 6] (cyclo([Ac5c][NMeV][d(β3hA)][NMeL]I[NMeA][Aze][NMeCha][Sar][hPhe(3-Cl-4-CF3)]P)) ?
[A] 21

[Q] What about C#Cc1cccc(C[C@@H]2NC(=O)CN(C)C(=O)[C@H](CC3CCCCC3)N(C)C(=O)CN(C)C(=O)CN(C)C(=O)[C@H]([C@@H](C)CC)NC(=O)[C@H](C)CN(C)C(=O)C[C@@H](C(=O)N3CCCCC3)N(C)C(=O)[C@H](CC(C)C)NC(=O)C(C)(C)N(C)C(=O)[C@H](Cc3ccc(OC)cc3)NC2=O)c1 [Compound 4] ([X3]I[Sar][Sar][NMeCha][Sar][X4]Y(Me)[NMeAib]L[NMeD]-Piperidide; lactam N-11) ?
[A] 1.5

[Q] Lookup CCCC[C@@H]1NC(=O)[C@H](Cc2cccc(F)c2F)NC(=O)CN(C)C(=O)[C@H](Cc2ccc(OC)cc2)N(C)C(=O)[C@@H]2CCN2C(=O)[C@@H]2CCCCN2C(=O)[C@H](C2CCC2)NC(=O)[C@H](CC(C)C)N(C)C(=O)C[C@@H](C(=O)N2CCCCC2)N(C)C(=O)[C@H](CC(C)C)NC(=O)C(C)(C)N(C)C1=O [Compound 5] ([NMeL][Gly(cBu)][Pip][Aze][NMeY](Me)[Sar][X5][Nle][NMeAib]L[NMeD]-Piperidide; lactam N-11)
[A] 3.6

[Q] Now this one: CC(C)=CC[C@@H]1NC(=O)[C@H](Cc2cccc(I)c2)NC(=O)CN(C)C(=O)[C@H](CC2CCC(F)(F)CC2)N(C)C(=O)[C@@H]2CCN2C(=O)[C@@H]2CCCCN2C(=O)[C@H](C2CCC2)NC(=O)[C@H](CC(C)C)N(C)C(=O)C[C@@H](C(=O)N2CCCCC2)N(C)C(=O)[C@H](CC(C)C)NC(=O)[C@H](Cc2ccccc2)N(C)C1=O [Compound 2] ([NMeL][Gly(cBu)][Pip][Aze][X1][Sar][Phe(3-I)][X2][NMeF]L[NMeD]-Piperidide; lactam N-11)
[A] 4.4
